Ref: patent US6608082B1

List of IC50 values.
# experimental.system: MCR-4 (Homo sapiens, UniProt P32245)
# Construct: expressed in transfected cells; host or cells: HEK 293
# Sequence (P32245 whole entry): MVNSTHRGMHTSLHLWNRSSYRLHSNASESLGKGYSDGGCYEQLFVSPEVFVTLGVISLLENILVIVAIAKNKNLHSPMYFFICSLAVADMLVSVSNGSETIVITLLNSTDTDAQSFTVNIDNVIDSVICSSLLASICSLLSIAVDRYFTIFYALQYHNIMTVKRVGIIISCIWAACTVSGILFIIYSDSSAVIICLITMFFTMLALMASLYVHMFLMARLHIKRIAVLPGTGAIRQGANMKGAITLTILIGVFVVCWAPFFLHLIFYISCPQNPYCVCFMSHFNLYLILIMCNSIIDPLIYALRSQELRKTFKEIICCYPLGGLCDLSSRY
# assay.details: Melanocortin receptor binding assay, competition with 125I-HP 467, HEK 293 cells expressing hMCR-4
# condition.context: competition with 125I-HP 467, HEK 293 cells expressing MCR-4; read-out: MC-4 IC50
The answer is to be given in nM; state only the numeric part.

Consider the following illustrative entries.
compound	IC50, nM
CCCCNc1ccc(C2C(CN)c3ccccc3CN2CCCC(CN)NCCc2ccccc2)cc1 (stereo not shown)	850
CCCCNc1ccc(C2C(CNCc3ccccc3O)c3ccccc3CN2CCCCC(CN)NC)cc1 (stereo not shown)	10700
CCCCNc1ccc(C2C(CNCCc3ccccc3)c3ccccc3CN2CCCCC(CN)NCCCC)cc1 (stereo not shown)	1050
CCCCNc1ccc(C2C(CNC3CCCCC3)c3ccccc3CN2CCCCC(CN)NCC)cc1 (mixture of isomers)	830
CCCCNC(CN)CCCN1Cc2ccccc2C(CNC2CCCCC2)C1c1ccc(-c2ccccc2)cc1 (stereo not shown)	1590
CCCCNC(CN)CCCCN1Cc2ccccc2C(CNCCc2ccccc2)C1c1ccc(-c2ccccc2)cc1 (stereo not shown)	1800

Give the measured IC50 of CNC(CN)CCCCN1Cc2ccccc2C(CNC2CCCCC2)C1c1ccc(NCCC2CC3CCC2C3)cc1 (stereo not shown) .
12300

// next record CCCCNc1ccc(C2C(CNC3CCCCC3)c3ccccc3CN2CCCCC(CN)NCCc2ccc3ccccc3c2)cc1 (stereo not shown)
1650

====

List of pIC50 values.
# experimental.system: MCR-4 (Homo sapiens, UniProt P32245)
# Construct: expressed in transfected cells; host or cells: HEK 293
# assay.details: Melanocortin receptor binding assay, competition with 125I-HP 467, HEK 293 cells expressing hMCR-4
# condition.context: inhibition of binding of 125I-HP 467, HEK 293 cells expressing MCR-4; read-out: MC-4 IC50
Please keep in mind that pIC50 is minus log10 of the molar concentration; only the number is needed.

Consider the following illustrative entries.
compound	experimental.system	pIC50
Cc1ccc(CNC(CN)CCCCN2Cc3ccccc3C(CNCCc3ccc(Oc4ccccc4)cc3)C2c2cc(C(F)(F)F)cc(C(F)(F)F)c2)cc1 (stereo not shown)	MCR-4 (Homo sapiens, UniProt P32245)	5.03
COc1ccc(CCNCC2c3ccccc3CN(CCCCC(CN)NCc3ccc(C)cc3)C2c2cc(C(F)(F)F)cc(C(F)(F)F)c2)cc1 (stereo not shown)	MCR-4 (Homo sapiens, UniProt P32245)	5.85
CCNc1ccc(C2C(CNCCc3ccccc3)c3ccccc3CN2CCCC(CN)NCc2ccc(OC)cc2)cc1 (stereo not shown)	MCR-4 (Homo sapiens, UniProt P32245)	6.29
CCCCCc1ccc(C2C(CN)c3ccccc3CN2CCCC(CN)NCCC2CCCCC2)cc1 (stereo not shown)	MCR-4 (Homo sapiens, UniProt P32245)	5.03

Give the measured pIC50 of CCNc1ccc(C2C(CNC3CCCCC3)c3ccccc3CN2CCCC(CN)NCc2ccccc2)cc1 (stereo not shown) .
6.36

// next record CCOc1ccc(CCNCC2c3ccccc3CN(CCCCC(CN)NCc3ccc(OC)cc3)C2c2cc(C(F)(F)F)cc(C(F)(F)F)c2)cc1 (stereo not shown)
5.65

// next record COc1ccc(CCNCC2c3ccccc3CN(CCCCC(CN)NCc3ccc(C)cc3)C2c2cc(C(F)(F)F)cc(C(F)(F)F)c2)cc1OC (mixture of isomers)
6.08

====

List of IC50 values.
# experimental.system: MCR-1 (Homo sapiens, UniProt Q01726)
# Construct: expressed in transfected cells; host or cells: HEK 293
# Sequence (Q01726 whole entry): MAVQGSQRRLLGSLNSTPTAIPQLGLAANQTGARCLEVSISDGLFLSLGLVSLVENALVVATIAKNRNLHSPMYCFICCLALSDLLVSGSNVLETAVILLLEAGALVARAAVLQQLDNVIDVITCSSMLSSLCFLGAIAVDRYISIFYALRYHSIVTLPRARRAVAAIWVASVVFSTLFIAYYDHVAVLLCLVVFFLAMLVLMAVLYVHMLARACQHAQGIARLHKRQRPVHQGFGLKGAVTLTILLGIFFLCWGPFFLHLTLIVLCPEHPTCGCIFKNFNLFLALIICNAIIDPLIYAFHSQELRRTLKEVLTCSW
# assay.details: Melanocortin receptor binding assay, competition with 125I-HP 467, HEK 293 cells expressing hMCR-1
# condition.context: inhibition of binding of 125I-HP 467, HEK 293 cells expressing MCR-1; read-out: MC-1 IC50
The answer is to be given in nM; state only the numeric part.

Consider the following illustrative entries.
molecule	IC50, nM
CCNc1ccc(C2C(CNCCc3ccccc3)c3ccccc3CN2CCCC(CN)NCCCCNc2ccccc2)cc1 (stereo not drawn) [TRG 2419-1]	110
CCCCNc1ccc(C2C(CN)c3ccccc3CN2CCCC(CN)NCCCC)cc1 (stereo not drawn) [TRG 2411-219]	100
CCOc1ccc(CCNCC2c3ccccc3CN(CCCCC(CN)NCc3ccccc3)C2c2cccc(C(F)(F)F)c2)cc1 (stereo not drawn) [TRG 2421-45]	980
CCNc1ccc(C2C(CN)c3ccccc3CN2CCCC(CN)NCCCCNCCc2ccccc2)cc1 (stereo not drawn) [TRG 2419-12]	73
CCNc1ccc(C2C(CNC3CCCCC3)c3ccccc3CN2CCCC(CN)NCc2ccc(Cl)cc2)cc1 (stereo not drawn) [TRG 2411-170]	130
CNCCNC(CN)CCCCN1Cc2ccccc2C(CN)C1c1ccc(-c2ccccc2)cc1 (stereo not drawn) [TRG 2413-2]	540
CCCCOc1ccc(C2C(CN)c3ccccc3CN2CCCCC(CN)NCC)cc1 (mixture of isomers) [TRG 2415-18]	306
COc1ccc(CNC(CN)CCCCN2Cc3ccccc3C(CNCCc3ccccc3)C2c2cc(C(F)(F)F)cc(C(F)(F)F)c2)cc1 (stereo not drawn) [TRG 2421-4]	2570
CCCCNc1ccc(C2C(CNC3CCCCC3)c3ccccc3CN2CCCC(CN)NCCCC)cc1 (stereo not drawn) [TRG 2411-205]	250
COc1ccc(CCNCC2c3ccccc3CN(CCCCC(CN)NCc3ccc(OC)cc3)C2c2cc(C(F)(F)F)cc(C(F)(F)F)c2)cc1 (stereo not drawn) [TRG 2421-14]	3470

Give the measured IC50 of CCCCCNc1ccc(C2C(CNCCc3ccccc3)c3ccccc3CN2CCCC(CN)NCc2ccccc2)cc1 (stereo not drawn) [TRG 2412-18] .
190

// next record CCCCNc1ccc(C2C(CNC3CCCCC3)c3ccccc3CN2CCCC(CN)NCCc2ccc(Br)cc2)cc1 (stereo not drawn) [TRG 2411-208]
470

// next record CCCCOc1ccc(C2C(CNCCc3ccccc3)c3ccccc3CN2CCCCC(CN)NC)cc1 (stereo not drawn) [TRG 2412-10]
310

// next record NCC(CCCCN1Cc2ccccc2C(CNCCc2ccccc2)C1c1cc(C(F)(F)F)cc(C(F)(F)F)c1)NCc1ccc(-c2ccccc2)cc1 (stereo not drawn) [TRG 2421-5]
11200

// next record CCNc1ccc(C2C(CN)c3ccccc3CN2CCCC(CN)NCCCCN(CC)CC)cc1 (stereo not drawn) [TRG 2419-7]
141

====

# experimental.system: MCR-1 (Homo sapiens)
# Construct: expressed in transfected cells; host or cells: HEK 293
# assay.details: Melanocortin receptor binding assay, competition with 125I-HP 467, HEK 293 cells expressing hMCR-1
# condition.context: TRG 2405 section; inhibition of binding of 125I-HP 467, HEK 293 cells expressing MCR-1; read-out: MC-1 IC50
# Experimental: All cell culture media and reagents were obtained from GibcoBRL (Gaithersburg Md.), except for COSMIC CALF SERUM (HyClone; Logan Utah). Cells were suspended in PBS, 10% COSMIC CALF SERUM and 1 mM CaCl2. […] To assay isoquinoline compounds, binding assays were performed in duplicate in a 96 well format. […] Cells were harvested on GF/B filter plates as described above and counted.
readout.kind: IC50 (µM)
The answer is to be given in µM; state only the numeric part.

Consider the following illustrative entries.
molecule	unit.label	quantitative.readout
CNC(CN)CN1Cc2ccccc2C(CNC2CCCCC2)C1c1cccc(Oc2ccc(OC)cc2)c1 (centres unmarked) [TRG 2405-124]	µM	5.16
NCCN1Cc2ccccc2C(CNC2CCCCC2)C1c1cc(C(F)(F)F)cc(C(F)(F)F)c1 (centres unmarked) [TRG 2405-28]	µM	8.75
CNC(CN)CN1Cc2ccccc2C(CNC2CCCCC2)C1c1cccc(O)c1 (centres unmarked) [TRG 2405-133]	µM	20

Give the measured IC50 of CNC(CN)CN1Cc2ccccc2C(CNC2CCCCC2)C1c1ccccn1 (centres unmarked) [TRG 2405-111] .
7.48

====

# experimental.system: MCR-4 (Homo sapiens)
# Construct: expressed in transfected cells; host or cells: HEK 293
# assay.details: Melanocortin receptor binding assay, competition with 125I-HP 467, HEK 293 cells expressing hMCR-4
# condition.context: TRG 2406 and TRG 2407 libraries; inhibition of binding of 125I-HP 467; read-out: MC-4 IC50
readout.kind: IC50 (nM)
The answer is to be given in nM; state only the numeric part.

Checklist item: IC50 tested on MCR-4 (Homo sapiens), entry CNC(CN)CCCCN1Cc2ccccc2C(CNCCc2ccc(OC)cc2)C1c1ccc(Cl)cc1Cl (stereo not shown) , value?
620

// next record CNC(CN)CCCCN1Cc2ccccc2C(CNc2ccc(OC)cc2)C1c1ccc(Cl)cc1Cl (stereo not shown)
6220

// next record CCn1c2ccccc2c2cc(C3C(CNCc4ccccc4O)c4ccccc4CN3CC(CN)NC)ccc21 (stereo not shown)
1530

// next record CNC(CN)CCCCN1Cc2ccccc2C(CNCc2ccccc2O)C1c1cccc(Oc2ccc(OC)cc2)c1 (stereo not shown)
1740
